# tgt: HuR M1_M2 (human, UniProt Q15717 1-197)
# Sequence (Q15717 1-197): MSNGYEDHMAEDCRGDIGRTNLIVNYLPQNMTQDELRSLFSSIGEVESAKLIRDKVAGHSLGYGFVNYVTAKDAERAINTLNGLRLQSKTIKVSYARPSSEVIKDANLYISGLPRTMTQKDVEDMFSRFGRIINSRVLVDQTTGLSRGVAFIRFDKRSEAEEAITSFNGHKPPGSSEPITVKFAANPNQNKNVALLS
# experiment.notes: equilibrium binding, assay not stated (REMSA or AlphaScreen); no DHTS; DHTS inhibits, Ki 4.12 nM; REMSA/AlphaScreen buffers as in ref 23 (not given); pull-down lysates: 20 mM HEPES pH 7.5, 50 mM KCl, 0.5 ug BSA, 0.25% glycerol, 4 C
# study.conditions: protein: recombinant; tags: His; label: 5'-Cy3; single strand
attribute.measured: Kd (nM)
Return type: number; implicit unit nM.

Inquiry: Form field: reported Kd of AUUAUUUAUUAUUUAUUUAUUAUUUA (ssRNA) [Cy3 TNF ARE RNA probe]
Reply text: 2.66
